tgt: T1, NativeRPtag(large)_with_Tags_and_Cys (Thermoanaerobacter tengcongensis)
T1 construct: Unlabeled in anisotropy assays; coupled through the engineered N-terminal Cys to SulfoLink agarose or maleimide plates in column, pull-down and ELISA assays
T1 chain: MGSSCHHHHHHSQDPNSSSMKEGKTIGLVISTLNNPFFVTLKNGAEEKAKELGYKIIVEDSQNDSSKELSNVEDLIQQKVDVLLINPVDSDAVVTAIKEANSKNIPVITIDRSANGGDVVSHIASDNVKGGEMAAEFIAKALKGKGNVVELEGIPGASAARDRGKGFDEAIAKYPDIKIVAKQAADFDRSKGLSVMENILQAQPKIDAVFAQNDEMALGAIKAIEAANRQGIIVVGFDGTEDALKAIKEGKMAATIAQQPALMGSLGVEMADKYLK
method: fluorescence anisotropy; ribose (3M)
No end group written: not given here. *: point of attachment. RhodamineB = CCN(CC)c1ccc2c(-c3ccccc3C(=O)*)c3ccc(=[N+](CC)CC)cc-3oc2c1
property: Kd (nM)
Give a bare numeral; the unit nM is implied.

Problem: Kd lookup needed for RhodamineB-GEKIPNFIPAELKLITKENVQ (Synthetic peptide) [native RPtag(small)] , thanks.
Result: 0.023
